# systemName: Fatty-acid amide hydrolase 1 (Homo sapiens, UniProt O00519)
# Sequence (O00519 whole entry): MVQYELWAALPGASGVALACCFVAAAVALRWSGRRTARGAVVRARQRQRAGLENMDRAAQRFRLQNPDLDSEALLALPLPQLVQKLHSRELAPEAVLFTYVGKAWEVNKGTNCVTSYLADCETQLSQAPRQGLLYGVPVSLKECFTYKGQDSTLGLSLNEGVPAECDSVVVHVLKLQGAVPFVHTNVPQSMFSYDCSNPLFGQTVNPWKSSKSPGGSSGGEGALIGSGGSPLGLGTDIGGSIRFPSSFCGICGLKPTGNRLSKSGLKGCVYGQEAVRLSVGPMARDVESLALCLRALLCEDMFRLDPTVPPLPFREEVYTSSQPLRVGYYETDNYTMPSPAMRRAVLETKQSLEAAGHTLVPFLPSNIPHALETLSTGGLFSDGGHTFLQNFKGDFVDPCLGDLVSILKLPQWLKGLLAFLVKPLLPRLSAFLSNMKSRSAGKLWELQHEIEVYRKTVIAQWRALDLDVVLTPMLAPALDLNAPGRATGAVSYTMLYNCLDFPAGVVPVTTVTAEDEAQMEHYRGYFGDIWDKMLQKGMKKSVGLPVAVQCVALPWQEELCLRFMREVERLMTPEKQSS
# assay: Inhibition of human recombinant MBP-tagged FAAH expressed in Escherichia coli cells using AAMCA as substrate incubated for 15 mins followed by substrate addition and measured after every 20 mins for 4 hrs by fluorescence based assay
In plain terms, low IC50, meaning strictly below 40 nM, gives 1 (yes), and everything else gives 0 (no).

# count of solved cases: 3
In [3]: df
Out[3]:
                       smilesrepresentation                                systemname  assignedcategory
0  O=C(Oc1cccc(N2CCS(=O)(=O)CC2)c1)N1CCC(c2ccc(OCCF)cc2)CC1  Fatty-acid amide hydrolase 1 (Homo sapiens, UniProt O00519)           1 (yes)
1  N#Cc1ccc(N2CCN(C(=O)Oc3cccc(N4CCS(=O)(=O)CC4)c3)CC2)cc1  Fatty-acid amide hydrolase 1 (Homo sapiens, UniProt O00519)            0 (no)
2  O=C(Oc1cccc(N2CCS(=O)(=O)CC2)c1)N1CCC(c2ccncc2)CC1  Fatty-acid amide hydrolase 1 (Homo sapiens, UniProt O00519)            0 (no)

-- ask Regarding "COc1ccc(N2CCN(C(=O)Oc3cccc(N4CCS(=O)(=O)CC4)c3)[C@H](C)C2)cc1" , kindly confirm whether its IC50 is beneath 40 nM.
-- reply 1 (yes)

====

# systemName: UniProtKB O00519
# assay: Inhibition of human recombinant MBP-tagged FAAH expressed in Escherichia coli cells using AAMCA as substrate incubated for 15 mins followed by substrate addition and measured after every 20 mins for 4 hrs by fluorescence based assay
pIC50: −log10 of the molar value.
Returns MET if the recorded pIC50 is greater than or equal to 8, and NOT MET otherwise.

In [3]: df
Out[3]:
                                   compound        systemname  assignedcategory
0  C[C@H]1CN(c2ccc(F)cc2)CCN1C(=O)Oc1cccc(N2CCS(=O)(=O)CC2)c1  UniProtKB O00519           NOT MET
1  CC1CN(c2ccccc2)CCN1C(=O)Oc1cccc(N2CCS(=O)(=O)CC2)c1 (stereo unspecified)  UniProtKB O00519               MET
2  O=C(Oc1cccc(N2CCS(=O)(=O)CC2)c1)N1CCN(Cc2cccc(-c3ccccc3)c2)CC1  UniProtKB O00519               MET

Read the next record carefully.
-- ask Reported pIC50 at or above 8? "C[C@@H]1CN(c2ccccc2)CCN1C(=O)Oc1cccc(N2CCS(=O)(=O)CC2)c1"
-- reply NOT MET

====

# systemName: Fatty-acid amide hydrolase 1 (Rattus norvegicus) (UniProt P97612)
# Sequence (whole entry): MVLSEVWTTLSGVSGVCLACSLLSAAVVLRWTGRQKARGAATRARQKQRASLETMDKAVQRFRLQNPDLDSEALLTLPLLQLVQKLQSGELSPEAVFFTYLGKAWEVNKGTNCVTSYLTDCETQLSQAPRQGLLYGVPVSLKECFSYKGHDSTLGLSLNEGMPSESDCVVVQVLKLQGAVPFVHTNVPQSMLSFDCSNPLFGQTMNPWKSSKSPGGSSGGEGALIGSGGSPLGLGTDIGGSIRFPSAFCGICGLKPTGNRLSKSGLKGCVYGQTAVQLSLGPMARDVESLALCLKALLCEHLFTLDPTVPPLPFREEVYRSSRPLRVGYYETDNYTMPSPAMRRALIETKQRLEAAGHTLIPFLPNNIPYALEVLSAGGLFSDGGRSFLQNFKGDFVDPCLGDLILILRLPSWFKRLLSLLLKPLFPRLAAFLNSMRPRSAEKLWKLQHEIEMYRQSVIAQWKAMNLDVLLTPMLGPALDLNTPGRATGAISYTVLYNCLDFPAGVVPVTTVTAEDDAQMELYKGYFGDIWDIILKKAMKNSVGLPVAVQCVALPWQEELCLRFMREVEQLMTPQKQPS
# assay: Inhibition of rat recombinant His/GST-tagged FAAH expressed in Escherichia coli cells at 1 uM using AAMCA as substrate incubated for 15 mins followed by substrate addition and measured after every 20 mins for 4 hrs by fluorescence based assay relative to control
The source made the active and inactive calls. No cut-off for these calls is given here.
readoutType: inhibition

>>> print(df.to_string())
                       smilesrepresentation  readouttype    result
0  O=C(Oc1cccc(N2CCS(=O)(=O)CC2)c1)N1CCN(c2ccc(F)cc2)CC12CC2   inhibition       54%
1  O=C(Nc1cccc(N2CCS(=O)(=O)CC2)c1)N1CCC(c2ccccc2)CC1   inhibition  inactive
2  COc1ccc(N2CCN(C(=O)Oc3cccc(N4CCS(=O)(=O)CC4)c3)[C@@H](C(C)C)C2)cc1   inhibition  inactive
3  O=C(Oc1cccc(N2CCS(=O)(=O)CC2)c1)N1CCC2(CC1)COC2   inhibition  inactive
4  C[C@@H]1CN(C(=O)Oc2cccc(N3CCS(=O)(=O)CC3)c2)[C@@H](C)CN1c1ccc(F)cc1   inhibition       35%
5  O=C(Nc1cccc(N2CCS(=O)(=O)CC2)c1)N1CCN(c2ccccc2)CC1   inhibition  inactive
6  C[C@H]1CN(c2ccccc2)CCN1C(=O)Oc1cccc(N2CCS(=O)(=O)CC2)c1   inhibition  inactive

Let us move to another entry and its inhibition.
-- ask Sample "O=C(Oc1cccc(N2CCS(=O)(=O)CC2)c1)N1CCN(c2ccnnc2)CC1" — what was its inhibition?
-- reply inactive
